Assay: Human pharmacokinetic study, Example 5 Arm II (multiple dose, crossover)
Format: in vivo
Conditions: both sexes, human, blood, oral; Example 5 Arm II; Regimen A (C5-12) vs. B (reference regimen); read-out: Relative bioavailability, C24, point estimate
propertyName: bioavailability at 24 h (%)
Numeric answer only, unit % assumed.

Record summary for Cc1cnc(C(=O)N[C@H]2CCCCC/C=C\[C@@H]3C[C@@]3(C(=O)NS(=O)(=O)C3CC3)NC(=O)[C@@H]3C[C@@H](Oc4nc5ccccc5c5ccccc45)CN3C2=O)cn1 [Compound 1] : reported bioavailability at 24 h = 106

* * *

Test: Human pharmacokinetic study, Example 5 Arm I (single dose, replicated crossover)
Assay type: in vivo
Conditions: both sexes, human, blood, oral, single dose, non-fasting, Regimen B (reference regimen): two Triple Tablets + one Single Tablet morning, one Single Tablet evening, N = 171, read-out: AUC∞, geometric mean
propertyName: AUC(0-inf)
Output should be the measured figure followed by the unit it is expressed in.

Record summary for COc1c(-c2ccc3cc(NS(C)(=O)=O)ccc3c2)cc(-n2ccc(=O)[nH]c2=O)cc1C(C)(C)C [Compound 4] : reported AUC(0-inf) = 14900 ng·h/mL

Record summary for COC(=O)N[C@H](C(=O)N1CCC[C@H]1C(=O)Nc1ccc([C@@H]2CC[C@@H](c3ccc(NC(=O)[C@@H]4CCCN4C(=O)[C@@H](NC(=O)OC)C(C)C)cc3)N2c2ccc(C(C)(C)C)cc2)cc1)C(C)C [Compound 2] : reported AUC(0-inf) = 1760 ng·h/mL

* * *

Experiment: Human pharmacokinetic study, Example 5 Arm I (single dose, replicated crossover)
Format: in vivo
Conditions: both sexes, human, in vivo, oral, 3 film-coated Formulation C5-12 tablets, single dose, non-fasting, Regimen A (C5-12): three film-coated Formulation C5-12 tablets, N = 172, read-out: AUC∞, geometric mean
propertyName: AUC(0-inf) (ng·h/mL)
Numeric answer only, unit ng·h/mL assumed.

Record summary for `Cc1cnc(C(=O)N[C@H]2CCCCC/C=C\[C@@H]3C[C@@]3(C(=O)NS(=O)(=O)C3CC3)NC(=O)[C@@H]3C[C@@H](Oc4nc5ccccc5c5ccccc45)CN3C2=O)cn1` : reported AUC(0-inf) = 4490

Record summary for CC(C)c1nc(CN(C)C(=O)N[C@H](C(=O)N[C@@H](Cc2ccccc2)C[C@H](O)[C@H](Cc2ccccc2)NC(=O)OCc2cncs2)C(C)C)cs1 [Compound 3, reference compound] : reported AUC(0-inf) = 8090

* * *

Assay: Human pharmacokinetic study, Example 4 Arm II (single dose, crossover)
Type: in vivo
Settings: both sexes, human, in vivo, oral; Example 4 Arm II, single dose, non-fasting; Regimen A (reference regimen): two Triple Tablets + one Single Tablet morning, one Single Tablet evening; N = 13; read-out: Cmax, geometric mean
propertyName: Cmax (ng/mL)
Numeric answer only, unit ng/mL assumed.

Record summary for `COc1c(-c2ccc3cc(NS(C)(=O)=O)ccc3c2)cc(-n2ccc(=O)[nH]c2=O)cc1C(C)(C)C` : reported Cmax = 1240

Record summary for `Cc1cnc(C(=O)N[C@H]2CCCCC/C=C\[C@@H]3C[C@@]3(C(=O)NS(=O)(=O)C3CC3)NC(=O)[C@@H]3C[C@@H](Oc4nc5ccccc5c5ccccc45)CN3C2=O)cn1` : reported Cmax = 900

* * *

Assay: Human pharmacokinetic study, Example 4 Arm II (single dose, crossover)
Format: in vivo
Details: both sexes, human, blood, oral; Example 4 Arm II, single dose, non-fasting; Regimen A (reference regimen): two Triple Tablets + one Single Tablet morning, one Single Tablet evening; N = 13; read-out: C24, geometric mean
propertyName: concentration at 24 h (ng/mL)
Numeric answer only, unit ng/mL assumed.

Record summary for CC(C)c1nc(CN(C)C(=O)N[C@H](C(=O)N[C@@H](Cc2ccccc2)C[C@H](O)[C@H](Cc2ccccc2)NC(=O)OCc2cncs2)C(C)C)cs1 [Compound 3, reference compound] : reported concentration at 24 h = 37

* * *

Test: Sink Conditions dissolution testing of Formulation C5-12
Format: physicochemical
Conditions: 12 hours, pH 6.8 buffer, 15 mM cTAB, N = 6
propertyName: % Released (%)
Numeric answer only, unit % assumed.

Record summary for Cc1cnc(C(=O)N[C@H]2CCCCC/C=C\[C@@H]3C[C@@]3(C(=O)NS(=O)(=O)C3CC3)NC(=O)[C@@H]3C[C@@H](Oc4nc5ccccc5c5ccccc45)CN3C2=O)cn1 [Compound 1] : reported % Released = 102

Record summary for CC(C)c1nc(CN(C)C(=O)N[C@H](C(=O)N[C@@H](Cc2ccccc2)C[C@H](O)[C@H](Cc2ccccc2)NC(=O)OCc2cncs2)C(C)C)cs1 [Compound 3, reference compound] : reported % Released = 102

Record summary for COC(=O)N[C@H](C(=O)N1CCC[C@H]1C(=O)Nc1ccc([C@@H]2CC[C@@H](c3ccc(NC(=O)[C@@H]4CCCN4C(=O)[C@@H](NC(=O)OC)C(C)C)cc3)N2c2ccc(C(C)(C)C)cc2)cc1)C(C)C [Compound 2] : reported % Released = 102

Record summary for COc1c(-c2ccc3cc(NS(C)(=O)=O)ccc3c2)cc(-n2ccc(=O)[nH]c2=O)cc1C(C)(C)C [Compound 4] : reported % Released = 39

* * *

Experiment: Human pharmacokinetic study, Example 4 Arm II (single dose, crossover)
Type: in vivo
Conditions: both sexes, human, blood, oral; Example 4 Arm II, single dose, non-fasting; Regimen A (reference regimen): two Triple Tablets + one Single Tablet morning, one Single Tablet evening; N = 13; read-out: Tmax
Give Tmax for every item shown.

Record summary for `Cc1cnc(C(=O)N[C@H]2CCCCC/C=C\[C@@H]3C[C@@]3(C(=O)NS(=O)(=O)C3CC3)NC(=O)[C@@H]3C[C@@H](Oc4nc5ccccc5c5ccccc45)CN3C2=O)cn1` : reported Tmax = 4.8 h

Record summary for `COc1c(-c2ccc3cc(NS(C)(=O)=O)ccc3c2)cc(-n2ccc(=O)[nH]c2=O)cc1C(C)(C)C` : reported Tmax = 3.1 h

* * *

Give concentration at 24 h for every item shown.
Experiment: Human pharmacokinetic study, Example 4 Arm III (14-day multiple dose, steady state)
Format: in vivo
Conditions: human, in vivo, oral, 3 Formulation C5-12 tablets daily, three Formulation C5-12 tablets daily for 14 days, non-fasting, Day 1, N = 14, read-out: C24, geometric mean
Numeric answer only, unit ng/mL assumed.

Record summary for `COc1c(-c2ccc3cc(NS(C)(=O)=O)ccc3c2)cc(-n2ccc(=O)[nH]c2=O)cc1C(C)(C)C` : reported concentration at 24 h = 272

Record summary for `Cc1cnc(C(=O)N[C@H]2CCCCC/C=C\[C@@H]3C[C@@]3(C(=O)NS(=O)(=O)C3CC3)NC(=O)[C@@H]3C[C@@H](Oc4nc5ccccc5c5ccccc45)CN3C2=O)cn1` : reported concentration at 24 h = 33.7

Record summary for CC(C)c1nc(CN(C)C(=O)N[C@H](C(=O)N[C@@H](Cc2ccccc2)C[C@H](O)[C@H](Cc2ccccc2)NC(=O)OCc2cncs2)C(C)C)cs1 [Compound 3, reference compound] : reported concentration at 24 h = 34.7

Record summary for `COC(=O)N[C@H](C(=O)N1CCC[C@H]1C(=O)Nc1ccc([C@@H]2CC[C@@H](c3ccc(NC(=O)[C@@H]4CCCN4C(=O)[C@@H](NC(=O)OC)C(C)C)cc3)N2c2ccc(C(C)(C)C)cc2)cc1)C(C)C` : reported concentration at 24 h = 23.4

* * *

Assay: Human pharmacokinetic study, Example 4 Arm II (single dose, crossover)
Assay type: in vivo
Conditions: both sexes, human, in vivo; Example 4 Arm II, single dose, non-fasting; Regimen A (reference regimen): two Triple Tablets + one Single Tablet morning, one Single Tablet evening; N = 13; read-out: AUCt, geometric mean
Protocol: Formulation C5-12 and a second formulation were tested in Arm II of the study. Adult male and female subjects (N=30 for combined Arm I and Arm II studies) in general good health were selected to participate in the study according to the selection criteria. Subjects meeting the selection criteria were randomly assigned to one of the Regimen sequences as shown below in Table 4-A. Study drug was administered as provided below in Table 4-B. […]
propertyName: AUC(0-t) (ng·h/mL)
Numeric answer only, unit ng·h/mL assumed.

Record summary for CC(C)c1nc(CN(C)C(=O)N[C@H](C(=O)N[C@@H](Cc2ccccc2)C[C@H](O)[C@H](Cc2ccccc2)NC(=O)OCc2cncs2)C(C)C)cs1 [Compound 3, reference compound] : reported AUC(0-t) = 7710

* * *

Give Tmax for every item shown.
Assay: Human pharmacokinetic study, Example 4 Arm III (14-day multiple dose, steady state)
Type: in vivo
Conditions: human, in vivo, oral, 3 Formulation C5-12 tablets daily, three Formulation C5-12 tablets daily for 14 days, non-fasting, Day 1, N = 14
Numeric answer only, unit h assumed.

Record summary for COC(=O)N[C@H](C(=O)N1CCC[C@H]1C(=O)Nc1ccc([C@@H]2CC[C@@H](c3ccc(NC(=O)[C@@H]4CCCN4C(=O)[C@@H](NC(=O)OC)C(C)C)cc3)N2c2ccc(C(C)(C)C)cc2)cc1)C(C)C [Compound 2] : reported Tmax = 5.5

Record summary for Cc1cnc(C(=O)N[C@H]2CCCCC/C=C\[C@@H]3C[C@@]3(C(=O)NS(=O)(=O)C3CC3)NC(=O)[C@@H]3C[C@@H](Oc4nc5ccccc5c5ccccc45)CN3C2=O)cn1 [Compound 1] : reported Tmax = 6.7

Record summary for COc1c(-c2ccc3cc(NS(C)(=O)=O)ccc3c2)cc(-n2ccc(=O)[nH]c2=O)cc1C(C)(C)C [Compound 4] : reported Tmax = 9

Record summary for CC(C)c1nc(CN(C)C(=O)N[C@H](C(=O)N[C@@H](Cc2ccccc2)C[C@H](O)[C@H](Cc2ccccc2)NC(=O)OCc2cncs2)C(C)C)cs1 [Compound 3, reference compound] : reported Tmax = 5.4
